Reported OD450 values follow for various binders
target: T1, biotin-peptide TSPIPNMADD (human); assay: ELISA biotin-peptide; scFv 10 ug/mL; repII
T1 peptide: Biotin-TSPIPNMADD
Where no end group is shown, it is not given here. The star is where a group is joined. Biotin = O=C1N[C@H]2[C@H](CS[C@H]2CCCCC(=O)*)N1
ENDPOINT_LABEL: OD450 (OD)

BINDER: Comparative antibody 3 (Comp-3) scFv, SR_92R (Somovilla-Crespo et al. 2018), His-tagged (scFv) scFv: EVKLEESGGGLVQPGGSMKLSCVASGFTFNKFWMNWVRQSPEKGLEWVAEIRLKSNNYATHYAESVKGRFTISRDDSKSSVYLQMNNLRAEDTGIYYCASDGWFAYWGQGTLVTVSAGGGGSGGGGSGGGGSGGGGSDVVMTQTPLSLPVSLGDQASISCRSSQSLVHSNGNTYLNWCLQRPGQSPKSLIYKVSNRFSGVPDRFSGSGSGTDFTLKISRVEAEDLGVYFCSQSTHFPRTFGGGTKLEIKRHHHHHH
RESULT_NUMBER: 1.69
//
BINDER: Comparative antibody 1 (Comp-1) scFv, SEQ ID NO: 10 from WO2023/037125 A1, His-tagged (scFv) scFv: QVQLKESGPGLVQPSQTLSLTCTVSGFSVASYDMHWVRLPPGKGLEWMGIIWANGNTHYNSGLKSRLSISRDTSKSQVFLKMNSLQTEDTAIYFCTRGGFAYWGQGTLVTVSSGGGGSGGGGSGGGGSGGGGSDVVMTQTPVSLSVSLGGQVSISCRSSQSLVHNNGNTYLSWYLQKPGQSPQLLIYKVSNRFSGVSDRFSGSGSGTDFTLKISRVEPDDLGVYYCGQGTQYPTFGGGTKLELKHHHHHH
RESULT_NUMBER: 0.15
//
BINDER: CCR9_HUM2 scFv (humanized anti-CCR9 scFv, SEQ ID NO: 17 with C-terminal 6xHis tag) (scFv) scFv: QVQLVQSGAEVKKPGASVKVSCTASGYSFTDYIIYWVKQAHGQSLEWMGYIDPNNYNTRYSQKFQGKVTITVDKSSTSAYMELNSLTSDDTAVYYCARDVYWGQGTTVTVSSGGGGSGGGGSGGGGSGGGGSDVVMTQTPLSLSVTPGQPASISCRSSQSLVHSNGKTYLQWYLQKPGQSPKLLIYKVSNRFSGVPDRFSGSGSGTDFTLKISRVEAEDVGVYFCAQSTHVWTFGGGTKVEIKRAHHHHHH
RESULT_NUMBER: 0.06
